pest or weed control at 35 g/ha for assorted compounds
# Test system: Key Broadleaf Weed and Crop Species
# Assay Text: Post-emergent Test II herbicidal activity (Table 15)
# Assay type: in vivo
# Recorded Conditions: Amaranthus retroflexus, post-emergence, 336 h, redroot pigweed (Amaranthus retroflexus), 35 g ai/ha, 14 d, read-out: Visual Growth Reduction (%) 14 Days After Application, AMARE

Examples from the recorded data:
COC(=O)c1nc(-c2ccc3sccc3c2)cc(N)c1Cl [Compound 3.05]: 30 to 44%
COC(=O)c1nc(-c2ccc3cc[nH]c3c2F)c(Cl)c(N)c1Cl [Compound 1.07]: 85 to 94%
COc1c(N)nc(-c2cc3[nH]ccc3cc2F)nc1C(=O)O [Compound 1.37]: 0 to 29%

Please examine the following record next.
Consider the compound shown here: COC(=O)c1nc(-c2ccc3sccc3c2)c(C)c(N)c1Cl [Compound 3.06] What is its recorded pest or weed control at 35 g/ha?
85 to 94%

###

# Test system: Wheat and Barley and test plant species
# Assay Text: Post-emergent Test III, herbicidal activity in wheat and barley (Table 17; visual injury, GR20/GR50/GR80/GR90)
# Format: in vivo
# Recorded Conditions: KCHSC; dose for 90 percent growth reduction; probit analysis; 21 d
Property: GR90, KCHSC

Examples from the recorded data:
Nc1c(F)c(-c2ccc3cc[nH]c3c2F)nc(C(=O)O)c1Cl: 39 g ai/ha
COC(=O)c1nc(-c2ccc3cc[nH]c3c2F)cc(N)c1Cl: >140 g ai/ha
COC(=O)c1nc(-c2ccc(Cl)c3ccoc23)c(F)c(N)c1Cl: 103 g ai/ha

Consider the compound shown here: COC(=O)c1nc(-c2ccc3cc[nH]c3c2F)c(F)c(N)c1Cl What is its recorded GR90, KCHSC?
67 g ai/ha

###

# Tested on: Key Grass and Sedge Weeds as well as Grass Crops
# Assay Text: Post-emergent Test II herbicidal activity (Table 16)
# Type: in vivo
# Recorded Conditions: Echinochloa crus-galli, post-emergence, 336 h, barnyardgrass (Echinochloa crus-galli), 140 g ai/ha, 14 days after application, read-out: Visual Growth Reduction (%) 14 Days After Application ECHCG
Property: pest or weed control at 140 g/ha

Examples from the recorded data:
Cc1c(-c2ccc3sccc3c2)nc(C(=O)O)c(Cl)c1N [Compound 3.07]: 0 to 29%
Nc1c(F)c(-c2ccc3scnc3c2)nc(C(=O)O)c1Cl [Compound 6.02]: 85 to 94%
COC(=O)c1nc(-c2ccc3[nH]ncc3c2)c(F)c(N)c1Cl [Compound 4.01]: 0 to 29%
COC(=O)c1nc(-c2ccc3sccc3c2)nc(N)c1OC [Compound 3.08]: 75 to 84%

Consider the molecule shown here: Nc1c(F)c(-c2ccc3cn[nH]c3c2)nc(C(=O)O)c1Cl [Compound 4.06] What is its recorded pest or weed control at 140 g/ha?
75 to 84%

###

# Tested on: Wheat and Barley and test plant species
# Assay Text: Post-emergent Test III, herbicidal activity in wheat and barley (Table 17; visual injury, GR20/GR50/GR80/GR90)
# Assay type: in vivo
# Recorded Conditions: SINAR; dose for 50 percent growth reduction; probit analysis; 21 d
GR50, SINAR for assorted compounds

Examples from the recorded data:
COC(=O)c1nc(-c2ccc3cc[nH]c3c2F)cc(N)c1Cl: 3 g ai/ha
COC(=O)c1nc(-c2ccc3cc[nH]c3c2F)c(F)c(N)c1Cl: 4 g ai/ha
Nc1c(F)c(-c2ccc3cc[nH]c3c2F)nc(C(=O)O)c1Cl: 5 g ai/ha

Please examine the following record next.
Consider the compound shown here: COC(=O)c1nc(-c2ccc(Cl)c3ccoc23)c(F)c(N)c1Cl What is its recorded GR50, SINAR?
6 g ai/ha

###

pest or weed control at 140 g/ha for assorted compounds
# System: Key Grass and Sedge Weeds as well as Grass Crops
# Assay Text: Post-emergent Test II herbicidal activity (Table 16)
# Assay type: in vivo
# Recorded Conditions: Triticum aestivum, post-emergence, 336 h, wheat, spring (Triticum aestivum), 140 g ai/ha, 14 d, read-out: Visual Growth Reduction (%) 14 Days After Application, TRZAS

COC(=O)c1nc(-c2cc3occc3cc2F)c(F)c(N)c1Cl [Compound 2.10]: 60 to 74%

Consider the compound shown here: Nc1c(F)c(-c2cc3[nH]ccc3cc2F)nc(C(=O)O)c1Cl [Compound 1.14] What is its recorded pest or weed control at 140 g/ha?
0 to 29%

Consider the compound shown here: COC(=O)c1nc(-c2cc3[nH]ccc3cc2F)c(F)c(N)c1Cl [Compound 1.13] What is its recorded pest or weed control at 140 g/ha?
0 to 29%

Consider the compound shown here: COC(=O)c1nc(-c2ccc3cc[nH]c3c2F)nc(N)c1OC [Compound 1.34] What is its recorded pest or weed control at 140 g/ha?
30 to 44%

Consider the compound shown here: Nc1cc(-c2ccc3cc[nH]c3c2)nc(C(=O)O)c1Cl [Compound 1.22] What is its recorded pest or weed control at 140 g/ha?
0 to 29%

Consider the compound shown here: COC(=O)c1nc(-c2ccc3ccn([Si](C(C)C)(C(C)C)C(C)C)c3c2F)c(F)c(N)c1Cl [Compound 1.12] What is its recorded pest or weed control at 140 g/ha?
0 to 29%

Consider the compound shown here: COC(=O)c1nc(-c2cc3occc3cc2F)nc(N)c1OC [Compound 2.14] What is its recorded pest or weed control at 140 g/ha?
0 to 29%

Consider the compound shown here: COC(=O)c1nc(-c2ccc3cc[nH]c3c2F)c(F)c(N)c1OC [Compound 1.20] What is its recorded pest or weed control at 140 g/ha?
60 to 74%

Consider the compound shown here: Cn1ccc2cc(-c3nc(C(=O)O)c(Cl)c(N)c3F)ccc21 [Compound 1.01] What is its recorded pest or weed control at 140 g/ha?
0 to 29%

###

# Test system: Key Grass and Sedge Weeds as well as Grass Crops
# Assay Text: Post-emergent Test II herbicidal activity (Table 16)
# Format: in vivo
# Recorded Conditions: Zea mays, post-emergence, 336 h, maize, corn (Zea mays), 70 g ai/ha, 14 d, read-out: Visual Growth Reduction (%) 14 Days After Application, ZEAMX
Property: pest or weed control at 70 g/ha

Consider the molecule shown here: COC(=O)c1nc(-c2ccc(Cl)c3occc23)cc(N)c1Cl What is its recorded pest or weed control at 70 g/ha?
0 to 29%

Consider the molecule shown here: Cn1ccc2cc(-c3nc(C(=O)O)c(Cl)c(N)c3F)ccc21 What is its recorded pest or weed control at 70 g/ha?
95 to 100%

Consider the molecule shown here: COC(=O)c1nc(-c2cccc3occc23)c(F)c(N)c1Cl What is its recorded pest or weed control at 70 g/ha?
95 to 100%

Consider the molecule shown here: COC(=O)c1nc(-c2cc3ccoc3cc2F)cc(N)c1Cl What is its recorded pest or weed control at 70 g/ha?
75 to 84%

Consider the molecule shown here: COC(=O)c1nc(-c2ccc(Cl)c3occc23)c(F)c(N)c1Cl What is its recorded pest or weed control at 70 g/ha?
95 to 100%

###

# System: Wheat and Barley and test plant species
# Assay Text: Post-emergent Test III, herbicidal activity in wheat and barley (Table 17; visual injury, GR20/GR50/GR80/GR90)
# Assay type: in vivo
# Recorded Conditions: HORVS; 35 g ai/ha; post-emergent; 21 d
Property: Visual Growth Reduction (%) 21 Days After Application, HORVS

COC(=O)c1nc(-c2ccc3cc[nH]c3c2F)cc(N)c1Cl [Compound 1.23]: G (0-29)
Nc1c(F)c(-c2ccc3cc[nH]c3c2F)nc(C(=O)O)c1Cl [Compound 1.16]: G (0-29)
COC(=O)c1nc(-c2ccc(Cl)c3ccoc23)c(F)c(N)c1Cl [Compound 2.24]: G (0-29)

###

# Tested on: Key Broadleaf Weed and Crop Species
# Assay Text: Post-emergent Test II herbicidal activity (Table 15)
# Format: in vivo
# Recorded Conditions: Helianthus annuus, post-emergence, 336 h, sunflower (Helianthus annuus), 35 g ai/ha, 14 d, read-out: Visual Growth Reduction (%) 14 Days After Application, HELAN
Property: pest or weed control at 35 g/ha

COC(=O)c1nc(-c2ccc3cc[nH]c3c2F)c(Cl)c(N)c1Cl [Compound 1.07]: 95 to 100%
COC(=O)c1nc(-c2ccc3cc[nH]c3c2F)nc(N)c1OC [Compound 1.34]: 85 to 94%
COC(=O)c1nc(-c2ccc3cc[nH]c3c2)cc(N)c1Cl [Compound 1.21]: 45 to 59%
Nc1c(F)c(-c2ccc3scnc3c2)nc(C(=O)O)c1Cl [Compound 6.02]: 95 to 100%
COC(=O)c1nc(-c2ccc3cc[nH]c3c2)nc(N)c1OC [Compound 1.32]: 45 to 59%

Consider the compound shown here: Cc1c(-c2ccc3cc[nH]c3c2)nc(C(=O)O)c(Cl)c1N [Compound 1.29] What is its recorded pest or weed control at 35 g/ha?
60 to 74%

Consider the compound shown here: COC(=O)c1nc(-c2ccc(Cl)c3ccoc23)cc(N)c1Cl [Compound 2.25] What is its recorded pest or weed control at 35 g/ha?
0 to 29%

Consider the compound shown here: COc1c(C(=O)O)nc(-c2ccc3cc[nH]c3c2F)c(F)c1N [Compound 1.17] What is its recorded pest or weed control at 35 g/ha?
95 to 100%

Consider the compound shown here: COC(=O)c1nc(-c2ccc3ccoc3c2F)nc(N)c1OC [Compound 2.13] What is its recorded pest or weed control at 35 g/ha?
75 to 84%

Cited source: patent US20170050957A1
